# TESTED TARGET: T1, Growth and Differentiation Factor 15 (GDF15) (UniProt Q99988 197-308, limits assumed)
# T1 construct: also called MIC-1; MIC1
# T1 sequence (looked up): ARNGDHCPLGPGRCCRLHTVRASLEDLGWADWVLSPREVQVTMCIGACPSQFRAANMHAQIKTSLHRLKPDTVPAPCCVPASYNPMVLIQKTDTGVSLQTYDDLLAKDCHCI
# TEST METHOD NOTES: ELISA, peptide on streptavidin plate, ligand 100 ng/ml
Ends that are not written are not given here.
EXPERIMENTAL READOUT: ELISA OD450 (OD450)

[[record]]
binder = "NAWQVIKGVLFRIFIIWAISSWFRRGPAPQDQAGPGGA (also: biotinylated, site not given here, also called peptide 28; GT4) [CLPTM1 peptide fragment of SEQ ID NO: 35]"
obs_value = 0.029

[[record]]
binder = "WQVIKGVLFRIFIIWAISSWG (also: biotinylated, site not given here) [CLPTM1 peptide fragment of SEQ ID NO: 29]"
obs_value = 0.023

[[record]]
binder = "SDGCYEHFAELDIPQSVQQNG (also: biotinylated, site not given here) [CLPTM1 peptide fragment of SEQ ID NO: 15]"
obs_value = 0.024


A. STKSPWNFLGDELYEQSDEEG (also: biotinylated, site not given here) [CLPTM1 peptide fragment of SEQ ID NO: 24]
B. ARSAVVAAGGGSSGQVTSNGSIGRDPPAETQPQNPPAQPA (also: biotinylated, site not given here, also called peptide 27; GT3) [CLPTM1 peptide fragment of SEQ ID NO: 34]
*Q* I would appreciate it if you could say which entry, A or B , has the lower ELISA OD450 value. Reply with the label of the item you choose.
*A* B
